Consider the following compounds; for each one, report its TGI.
test system: SF-268 CNS; assay: NCI tumour cell line growth inhibition, 48 h

Value lookup for TGI; key = `CC1(C)CC(n2cnc(-c3ccc(F)cc3)c2-c2ccnc(N)n2)CC(C)(C)N1`
> 25 µM

Could I get TGI for every one of these entries?
1. CCCN1CCN(c2ccc3nc(-c4ccc5nc(-c6cc(OC)ccc6OC)[nH]c5c4)[nH]c3c2)CC1
2. CCOc1ccc(Nc2nc(-c3ccc4c(c3)NC(=O)CO4)cs2)cc1

["43 µM", "> 100 µM"]

Could I get TGI for every one of these entries?
1. C=C(Br)CN(C(C)=O)C1CCCCC1
2. COC(=O)C12CC(c3ccccc31)C1C(=O)OC(=O)C12 (stereo unspecified)
3. COc1ccc2c(c1)N=C1CSC(c3cccc(Br)c3)N1C2 (stereo unspecified)
4. CCSC1=N/C(=C\c2ccco2)C(Cl)=N1
5. COc1ccc(NC(C)=O)cc1C1CCC(=O)N1 (stereo unspecified)
6. CCC[CH2][Sn]([CH2]CCC)([O]C(=O)C(N)CSC)[O]C(=O)C(N)CSC (stereo unspecified)

["> 100 µM", "> 100 µM", "> 100 µM", "> 100 µM", "> 100 µM", "11.3 µM"]

Could I get TGI for every one of these entries?
1. C=CCC(C(=O)O)c1ccccc1 (stereo unspecified)
2. O=C(C1C(c2ccccc2)N1C(c1ccccc1)c1ccccc1)C1C(c2ccccc2)N1C(c1ccccc1)c1ccccc1 (stereo unspecified)

1. > 100 µM
2. 67.5 µM

* * *

tested on: HOP-18 NSCLC; test: NCI tumour cell line growth inhibition, 48 h
Consider the following compounds; for each one, report its TGI.

Could I get TGI for every one of these entries?
1. C#C[C@]1(O)CCC2C3CCc4cc(Oc5nc(F)nc(-c6c7cc8ccccc8cc7c7n6CCS7)n5)ccc4C3CCC21C (stereo partly specified)
2. N=C(N)c1csc([C@@H]2O[C@H](CO)[C@@H](O)[C@H]2O)n1
3. COC(=O)C12CC3CC(C1)CC(C(=O)OC)(C3)C2
4. CC/C(=C(/CC)c1ccc(O)cc1)c1ccc([O-])cc1.CC/C(=C(/CC)c1ccc(O)cc1)c1ccc([O-])cc1.O=C([CH-]C(=O)c1ccccc1)c1ccccc1.O=C([CH-]C(=O)c1ccccc1)c1ccccc1.[Ti+4]
5. Nc1ncn(C2C=C(CO)C(O)C2O)c(=O)n1 (stereo unspecified)

> 100 µM
> 100 µM
> 100 µM
39.3 µM
> 100 µM

* * *

test system: HL-60(TB) leukemia; assay: NCI tumour cell line growth inhibition, 48 h
Consider the following compounds; for each one, report its GI50.

Before answering, review these 2 worked examples.
Value lookup for GI50; key = `CCOc1ccc(Nc2nc(-c3ccc4c(c3)NC(=O)CO4)cs2)cc1`
2.14 µM

Similarly, C=CCN(CC=C)C(=O)c1cc(C)nc2c1c(=O)n(-c1ccccc1)c(=O)n2CC(O)CN1CCN(c2ncccn2)CC1 (stereo not given) ?
> 100 µM

Could I get GI50 for every one of these entries?
1. NC(=O)c1ccc2c(-c3ccnc(NCCCO)n3)c(-c3ccc(F)cc3)nn2c1
2. COc1cc2cc(C(=O)Nc3cc(N)c4ccccc4c3CCCl)[nH]c2c(OC)c1OC
3. C[C@@H]1N=C(c2ccc(Br)cc2)Nc2nc3ccccn3c2C1=O

> 21.9 µM
0.0361 µM
6.49 µM
